Literature IC50 values, system: 3-phosphoinositide-dependent protein kinase 1 (Homo sapiens).

{"Smiles entry": "COc1ccc(C#Cc2ccc3ncc4ncn(-c5ccc(CCCN)cc5)c4c3c2)cc1", "Recorded measurement": "≤ 500 nM"}

// batch mode: one IC50 value per listed entry
1. COc1cc2nc(Nc3cccc(-n4cnnn4)c3)ncc2cc1-c1nccs1
2. NC(=O)c1cnc(N[C@H]2CCCNC2)c2cc(-c3cc(F)cc(F)c3)sc12
3. CSc1nc(N)nc(SCC(=O)Nc2nc(C)cs2)c1C#N
4. COc1ccc(C#Cc2ccc3ncc4ncn(-c5ccc(CCN)cc5)c4c3c2)cc1
5. CCOc1nc(N)nc(N(C)[C@@H](CCCCN)C(=O)Nc2cccc(C(F)(F)F)c2)c1C#N

["< 5000 nM", "350 nM", "> 2000 nM", "≤ 500 nM", "> 2000 nM"]
